# Tested on: Staphylococcus aureus ATCC25923
# Format: cell-based
# Protocol conditions: ATCC25923
Residues, ends and D or L forms follow the SMILES beside them.
Measurement name: MIC S. aureus (µg/mL)
Numeric answer only, unit µg/mL assumed.

Illustrative cases are given below, each with its answer.
Molecule	MIC S. aureus (µg/mL)
CC[C@H](C)[C@H](NC(=O)[C@H](CCCNC(=N)N)NC(=O)[C@H](Cc1ccccc1)NC(=O)[C@H](CCCNC(=N)N)NC(=O)[C@@H](N)CCCCN)C(=O)N[C@@H](CCCNC(=N)N)C(=O)N[C@H](C(=O)N[C@@H](CCCNC(=N)N)C(=O)N[C@H](C(=O)N[C@H](C(=O)N[C@@H](CCCNC(=N)N)C(=O)N[C@@H](CCCCN)C(N)=O)[C@@H](C)CC)C(C)C)C(C)C [HH15, KRFRIRVRVIRK] (H-KRFRIRVRVIRK-NH2)	6
CC[C@H](C)[C@H](NC(=O)[C@H](CCCNC(=N)N)NC(=O)[C@H](Cc1ccccc1)NC(=O)[C@H](CCCNC(=N)N)NC(=O)[C@@H](N)C(C)C)C(=O)N[C@@H](CCCNC(=N)N)C(=O)N[C@H](C(=O)N[C@@H](C)C(=O)N[C@H](C(=O)N[C@H](C(=O)N[C@@H](CCCNC(=N)N)C(=O)N[C@@H](C)C(N)=O)[C@@H](C)CC)C(C)C)C(C)C [HH3, VRFRIRVAVIRA] (H-VRFRIRVAVIRA-NH2)	12
CC[C@H](C)[C@H](N)C(=O)N[C@@H](CC(C)C)C(=O)N1CCC[C@H]1C(=O)N[C@@H](Cc1c[nH]c2ccccc12)C(=O)N[C@@H](Cc1c[nH]c2ccccc12)C(=O)N[C@@H](Cc1c[nH]c2ccccc12)C(=O)N1CCC[C@H]1C(=O)N[C@@H](Cc1c[nH]c2ccccc12)C(=O)N[C@@H](Cc1c[nH]c2ccccc12)C(=O)N1CCC[C@H]1C(=O)N[C@@H](Cc1c[nH]c2ccccc12)C(=O)N[C@@H](CCCNC(=N)N)C(=O)N[C@@H](CCCNC(=N)N)C(N)=O [HH235, ILPWWWPWWPWRR] (H-ILPWWWPWWPWRR-NH2; N-terminus assumed)	20

MIC S. aureus measured on CC[C@H](C)[C@H](NC(=O)[C@H](CCCNC(=N)N)NC(=O)[C@H](Cc1c[nH]c2ccccc12)NC(=O)[C@H](CCCNC(=N)N)NC(=O)[C@@H](N)C(C)C)C(=O)N[C@@H](CCCNC(=N)N)C(=O)N[C@H](C(=O)N[C@@H](C)C(=O)N[C@H](C(=O)N[C@H](C(=O)N[C@@H](CCCNC(=N)N)C(=O)N[C@@H](C)C(N)=O)[C@@H](C)CC)C(C)C)C(C)C [HH4, VRWRIRVAVIRA] (H-VRWRIRVAVIRA-NH2) = 12

Documented MIC S. aureus of CC[C@H](C)[C@H](NC(=O)[C@H](CCCNC(=N)N)NC(=O)[C@H](CC(C)C)NC(=O)[C@H](CCCNC(=N)N)NC(=O)[C@@H](N)CCC(N)=O)C(=O)N[C@@H](CCCNC(=N)N)C(=O)N[C@H](C(=O)N[C@@H](C)C(=O)N[C@H](C(=O)N[C@H](C(=O)N[C@@H](CCCNC(=N)N)C(=O)N[C@@H](C)C(N)=O)[C@@H](C)CC)C(C)C)C(C)C [HH1, QRLRIRVAVIRA] (H-QRLRIRVAVIRA-NH2) : 50

All values here come from patent US8343475B2.
